Measured values drawn from patent US20140303084A1 for this set.

target: human Factor IXa (human, UniProt P00740 47-191; P00740 227-461); experiment: cell-based or functional assay
Square brackets hold non-standard residues; d marks the D form. Primed or numbered codes have the meaning given here. Side chains are listed from the residue outwards. Ends that are not written are not given here. * marks the point of attachment. Biotin = O=C1N[C@H]2[C@H](CS[C@H]2CCCCC(=O)*)N1; PEG2″ = not defined here; Dab = NCC[C@H](N)C(=O)O; PEG2(4) = PEG2 spacer
property-measured: EC50 [µM], FXa generation assay

**Query** Entry RRAK([PEG2(4)-Biotin])GKLTCLASYCWLFWTGIA (not fully specified (C-terminus); printed as RRAK(PEG2-Biotin)GKLTCLASYCWLFWTGIA; cysteine pairing not given here) [RRAK(PEG2-Biotin)GKLTCLASYCWLFWTGIA] : reported EC50 [µM], FXa generation assay = ?
**Result** > 1 µM

**Query** Okay, and PSIRTVGPGSRSASGKLTCLASYCWLFWTGIA (not fully specified; cysteine pairing not given here) ?
**Result** < 0.5 µM

**Query** Okay, and RRAPGKCTALASYCWLFWTGIA-NH2 (cysteine pairing not given here) [RRAPGKCTALASYCWLFWTGIA-CONH2] ?
**Result** > 1 µM

**Query** Okay, and `KGRCLTSHCWLF` ?
**Result** > 20 µM

**Query** Okay, and RRAPGKLTCLASK([PEG2″-Biotin])CWLFWTGIA (not fully specified; printed as RRAPGKLTCLASK(PEG2-Biotin)CWLFWTGIA; cysteine pairing not given here) [RRAPGKLTCLASK(PEG2-Biotin)CWLFWTGIA] ?
**Result** < 0.5 µM

Continuing:
**Query** Entry `VAHYGKVTCLASYCQPLPSVGA` : reported EC50 [µM], FXa generation assay = ?
**Result** > 20 µM

**Query** Okay, and KLTELASY[Dab]WLF (not fully specified; printed as KLT-Glu-LASY-Dab-WLF) [KLT-Glu-LASY-Dab-WLF] ?
**Result** > 1 µM
